Where these numbers come from: patent US6576628B1

Target: MMP2 (Homo sapiens)
Sequence (P08253 110-660): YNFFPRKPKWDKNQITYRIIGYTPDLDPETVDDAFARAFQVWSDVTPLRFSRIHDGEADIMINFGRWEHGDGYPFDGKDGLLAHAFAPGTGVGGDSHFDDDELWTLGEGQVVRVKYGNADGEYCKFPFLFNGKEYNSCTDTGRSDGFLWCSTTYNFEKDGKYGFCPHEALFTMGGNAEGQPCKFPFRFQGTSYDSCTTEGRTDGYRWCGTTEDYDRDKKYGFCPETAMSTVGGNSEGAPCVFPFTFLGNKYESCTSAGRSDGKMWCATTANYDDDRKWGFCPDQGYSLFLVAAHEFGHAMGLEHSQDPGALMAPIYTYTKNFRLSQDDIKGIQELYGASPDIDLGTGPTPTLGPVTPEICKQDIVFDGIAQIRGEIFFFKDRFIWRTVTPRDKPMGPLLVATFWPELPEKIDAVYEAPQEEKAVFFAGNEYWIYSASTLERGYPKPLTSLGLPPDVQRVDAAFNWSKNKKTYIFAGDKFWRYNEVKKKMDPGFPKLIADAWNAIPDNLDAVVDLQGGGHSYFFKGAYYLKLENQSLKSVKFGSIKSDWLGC
Experiment: MMP2 inhibition assay in analogy to HNC (MMP8) assay
Details: activated MMP2; other concentrations than MMP8 assay
metric.name: IC50 (nM)
# value in nM; strip the unit string

// IC50 value for CNC(=O)[C@@H](NC(=O)C(c1ccc(-c2ccccc2)cc1)C(O)C(=O)NO)C(C)(C)C (mixture of isomers) [example 1.5] : 23
